Test system: Human alphaherpesvirus 3
Assay notes: Antiviral activity against OKA strain of thymidine kinase positive(TK+) Varicella-Zoster Virus (VZV)
Type: functional, organism-based
Metric name: EC50 (nM)
Return type: number; implicit unit nM.

O=c1[nH]c(=O)n([C@H]2C[C@H](O)[C@]3(CO)C[C@H]23)cc1I	160
O=c1[nH]c(=O)n([C@H]2C[C@H](O)[C@@H](CO)O2)cc1/C=C/Br [BRIVUDINE]	5
O=c1[nH]c(=O)n([C@H]2C[C@H](O)[C@]3(CO)C[C@H]23)cc1/C=C/Br	5

Moving on to the next compound.
Prompt line: Provide measured EC50 on Human alphaherpesvirus 3 for `O=c1[nH]c(=O)n([C@H]2C[C@H](O)[C@]3(CO)C[C@H]23)cc1Br` please.
Response line: 200

----------
In this section, each of the compounds is paired with its reported EC50.
System: Human alphaherpesvirus 1
Assay notes: Inhibitory concentration required to reduce HSV-1 induced cytopathogenic effect (CPE) by 50 % in HFF cells
Type: functional, organism-based, herpes simplex virus
Reported conditions: Human alphaherpesvirus 1, HFF
The reply should contain only the number, in nM.

Use the examples below as a reference point.
O=c1[nH]c(=O)n([C@H]2C[C@H](O)[C@]3(CO)C[C@H]23)cc1/C=C/Br	6410
O=c1[nH]c(=O)n([C@H]2C[C@H](O)[C@]3(CO)C[C@H]23)cc1Br	1230
Cc1cn([C@H]2C[C@H](O)[C@]3(CO)C[C@H]23)c(=O)[nH]c1=O	120

Prompt line: Complete the entry with EC50 for `Nc1nc2c(ncn2COCCO)c(=O)[nH]1`
Response line: 2220

----------
Below, each entry is listed alongside its reported CC50.
System: HFF
Assay notes: Cytotoxic concentration for 50% inhibition of cell growth of HSV-2 infected HFF cells determined by CPE assay
Format: functional
Reported conditions: Homo sapiens

Cc1cn([C@H]2C[C@H](O)[C@]3(CO)C[C@H]23)c(=O)[nH]c1=O	> 396 µM
O=c1[nH]c(=O)n([C@H]2C[C@H](O)[C@]3(CO)C[C@H]23)cc1Br	> 315 µM
O=c1[nH]c(=O)n([C@H]2C[C@H](O)[C@]3(CO)C[C@H]23)cc1I	> 275 µM

Prompt line: Return the recorded CC50 value; entry: `O=c1[nH]c(=O)n([C@H]2C[C@H](O)[C@]3(CO)C[C@H]23)cc1/C=C/Br`
Response line: > 291 µM

----------
Tested on: Human alphaherpesvirus 3
Assay notes: Antiviral activity against YS strain of thymidine kinase positive(TK+) Varicella-Zoster Virus (VZV)
Type: functional, organism-based
Metric name: EC50
Report as: number unit

O=c1[nH]c(=O)n([C@H]2C[C@H](O)[C@]3(CO)C[C@H]23)cc1/C=C/Br	7 nM
O=c1[nH]c(=O)n([C@H]2C[C@H](O)[C@]3(CO)C[C@H]23)cc1Br	200 nM
O=c1[nH]c(=O)n([C@H]2C[C@H](O)[C@@H](CO)O2)cc1/C=C/Br	8 nM

Now examine the next entry.
Prompt line: # return recorded EC50 for input `O=c1[nH]c(=O)n([C@H]2C[C@H](O)[C@]3(CO)C[C@H]23)cc1I`
Response line: 120 nM

----------
System: HFF
Assay notes: Inhibitory concentration for HSV-1 plaque reduction (VPR) by 50% in HFF cells
Type: functional, cell-based
Reported conditions: Homo sapiens
Metric name: EC50 (µM)
Report the value in µM with no unit label.

Cc1cn([C@H]2C[C@H](O)[C@]3(CO)C[C@H]23)c(=O)[nH]c1=O	0.04

Prompt line: Report EC50 under test system HFF for `O=c1[nH]c(=O)n([C@H]2C[C@H](O)[C@]3(CO)C[C@H]23)cc1Br` .
Response line: 0.095

----------
Tested on: HFF
Assay notes: Inhibitory concentration for HSV-2 plaque reduction (VPR) by 50% in HFF cells
Assay type: functional, cell-based
Reported conditions: Homo sapiens
Metric name: EC50 (nM)
Report only the number, with the unit nM understood.

O=c1[nH]c(=O)n([C@H]2C[C@H](O)[C@]3(CO)C[C@H]23)cc1Br	378

Prompt line: Read off the recorded EC50 for Cc1cn([C@H]2C[C@H](O)[C@]3(CO)C[C@H]23)c(=O)[nH]c1=O [(NORTH)-METHANOCARBATHYMIDINE]
Response line: 470

----------
Reported pKi values for a set of compounds
Assay notes: Inhibition constant against HSV-1 TK
Assay type: functional, herpes simplex virus
Note: pKi values are expressed as the negative base-10 logarithm of concentration in M.

The cases that follow already have their pKi on record.
Cc1cn([C@H]2C[C@H](O)[C@]3(CO)C[C@H]23)c(=O)[nH]c1=O [(NORTH)-METHANOCARBATHYMIDINE]	4.79
O=c1[nH]c(=O)n([C@H]2C[C@H](O)[C@]3(CO)C[C@H]23)cc1Br	4.16

Note: attention shifts to another entry.
Prompt line: Please give the documented pKi of `O=c1[nH]c(=O)n([C@H]2C[C@H](O)[C@]3(CO)C[C@H]23)cc1I`
Response line: 4.07

----------
Tested on: HFF
Assay notes: Inhibitory concentration to reduce Cowpox virus induced cytopathogenic effect by 50% in HFF cells
Type: functional, cell-based
Reported conditions: Homo sapiens
Metric name: pEC50
Just so you know, pEC50 here is -log10 of the concentration in molar units; reply with that number alone.

Prompt line: Query pEC50 for `O=c1[nH]c(=O)n([C@H]2C[C@H](O)[C@]3(CO)C[C@H]23)cc1Br`
Response line: 4.44

----------
Attribute: EC50
System: Human alphaherpesvirus 2
Assay notes: Inhibitory concentration required to reduce HSV-2 induced cytopathogenic effect (CPE) by 50 % in HFF cells
Format: functional, organism-based
Reported conditions: Human alphaherpesvirus 2, HFF
Just the number please, in µM, no unit attached.

Below, 3 compounds whose answers are already recorded.
O=c1[nH]c(=O)n([C@H]2C[C@H](O)[C@]3(CO)C[C@H]23)cc1Br	2.2
Cc1cn([C@H]2C[C@H](O)[C@]3(CO)C[C@H]23)c(=O)[nH]c1=O [(NORTH)-METHANOCARBATHYMIDINE]	0.35
O=c1[nH]c(=O)n([C@H]2C[C@H](O)[C@]3(CO)C[C@H]23)cc1I	9.06

Prompt line: Given Nc1nc2c(ncn2COCCO)c(=O)[nH]1 [ACYCLOVIR] , respond with its EC50.
Response line: 10.2

----------
Each entry below lists one item and its recorded k cat value.
Assay notes: Catalytic rate constant was determined
Format: ADME
The figure you give is taken to be in s⁻¹; do not add the unit.

O=c1[nH]c(=O)n([C@H]2C[C@H](O)[C@]3(CO)C[C@H]23)cc1/C=C/Br	0.07

Prompt line: For `Cc1cn([C@H]2C[C@H](O)[C@@H](CO)O2)c(=O)[nH]c1=O` , write its k cat.
Response line: 0.35

Prompt line: # return recorded k cat for entry `O=c1[nH]c(=O)n([C@H]2C[C@H](O)[C@]3(CO)C[C@H]23)cc1I`
Response line: 0.14

Prompt line: Determine from records and report k cat for `O=c1[nH]c(=O)n([C@H]2C[C@H](O)[C@]3(CO)C[C@H]23)cc1Br`
Response line: 0.15

Cited source: ChEMBL document CHEMBL1144911
